experiment: Plasma pharmacokinetics and tissue distribution 2 h after oral cabazitaxel 10 mg/kg with vehicle or 25 mg/kg ritonavir in wild-type, Oatp1a/1b−/−, Oatp1a/1b/2b1−/−, OATP1B1- and OATP1B3-transgenic mice; type: in vivo; conditions: male, FVB, mouse, plasma, po, 10 mg/kg, OATP1B3-transgenic mice; vehicle; cabazitaxel 10 mg/kg oral
Measured Parameter: Tmax (min)
I only need the number, in min, no unit after it.

Exercise: Can you look up the measured Tmax of CO[C@H]1C(=O)[C@]2(C)[C@@H](OC)C[C@H]3OC[C@@]3(OC(C)=O)[C@H]2[C@H](OC(=O)c2ccccc2)[C@]2(O)C[C@H](OC(=O)[C@H](O)[C@@H](NC(=O)OC(C)(C)C)c3ccccc3)C(C)=C1C2(C)C for me?
Key: 27.5

----------
assay: Plasma pharmacokinetics and tissue distribution 2 h after oral cabazitaxel 10 mg/kg with vehicle or 25 mg/kg ritonavir in wild-type, Oatp1a/1b−/−, Oatp1a/1b/2b1−/−, OATP1B1- and OATP1B3-transgenic mice; format: in vivo; conditions: male, FVB, mouse, plasma, po, 10 mg/kg, OATP1B1-transgenic mice; ritonavir 25 mg/kg oral; cabazitaxel 10 mg/kg oral
Measured Parameter: Cmax (µM)
Please reply with the bare figure in µM and do not write the unit itself.

Exercise: For the compound CO[C@H]1C(=O)[C@]2(C)[C@@H](OC)C[C@H]3OC[C@@]3(OC(C)=O)[C@H]2[C@H](OC(=O)c2ccccc2)[C@]2(O)C[C@H](OC(=O)[C@H](O)[C@@H](NC(=O)OC(C)(C)C)c3ccccc3)C(C)=C1C2(C)C [cabazitaxel] , what Cmax is on record?
Key: 4.67

----------
assay: in vivo; settings: male, Cyp3aXAV (FVB background), mouse, po, 10 mg/kg, Brain-to-plasma ratio
Measured Parameter: Kp at 24 h
Answer as a number with no unit attached.

Exercise: Kp at 24 h for CO[C@H]1C(=O)[C@]2(C)[C@@H](OC)C[C@H]3OC[C@@]3(OC(C)=O)[C@H]2[C@H](OC(=O)c2ccccc2)[C@]2(O)C[C@H](OC(=O)[C@H](O)[C@@H](NC(=O)OC(C)(C)C)c3ccccc3)C(C)=C1C2(C)C ?
Key: 1.52

----------
assay: Plasma pharmacokinetics and tissue distribution 2 h after oral cabazitaxel 10 mg/kg with vehicle or 25 mg/kg ritonavir in wild-type, Oatp1a/1b−/−, Oatp1a/1b/2b1−/−, OATP1B1- and OATP1B3-transgenic mice; type: in vivo; conditions: male, FVB, mouse, plasma, po, 10 mg/kg, Oatp1a/1b−/− mice; ritonavir 25 mg/kg oral; cabazitaxel 10 mg/kg oral
Measured Parameter: Tmax (h)
# number only, unit h dropped from output

Exercise: Look up Tmax for this compound: CO[C@H]1C(=O)[C@]2(C)[C@@H](OC)C[C@H]3OC[C@@]3(OC(C)=O)[C@H]2[C@H](OC(=O)c2ccccc2)[C@]2(O)C[C@H](OC(=O)[C@H](O)[C@@H](NC(=O)OC(C)(C)C)c3ccccc3)C(C)=C1C2(C)C [cabazitaxel]
Key: 1.33

----------
assay: in vivo; details: male, FVB, wild-type, mouse, po, 10 mg/kg, Tmax
Measured Parameter: Tmax
Don't forget the unit after the number, please.

Exercise: Item CC(C)c1nc(CN(C)C(=O)N[C@H](C(=O)N[C@@H](Cc2ccccc2)C[C@H](O)[C@H](Cc2ccccc2)NC(=O)OCc2cncs2)C(C)C)cs1 has what recorded Tmax?
Key: 55.2 min
